# Tested on: Inhibin beta A chain (activin A)
# measurement protocol: INHBA (activin A) binders on microarrays, primary screen, biochemical, small-molecule microarray, 635 nm fluorescence scan (AID 1107);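 note: mouse activin A protein probed at 4.33 µg/mL on printed slides; score merges bound-protein fluorescence near 667 nm with spot signal-to-noise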
# test conditions: small-molecule microarray binding, higher = more signal
assay metric: composite z-score
Quick one: just the number, no unit, thanks!

Use these answered entries as a reference point.
>  <compound>
COC(=O)[C@@]1(Cc2ccc(OC)cc2)[C@H]2c3cc(C(=O)N(C)C)n(Cc4ccc(S(C)(=O)=O)cc4)c3C[C@H]2CN1C(=O)c1ccccc1

>  <measured value>
1.16

$$$$
>  <compound>
CC(=O)n1cc(C(O)C2C=CC3C(=O)N(c4ccccc4)C(=O)C3N2Nc2ccc([N+](=O)[O-])cc2)c2ccccc21 (centres undefined)

>  <measured value>
0.783

$$$$
>  <compound>
C=CC(=C)[C@H]1Oc2ccccc2S(=O)(=O)N2CCC[C@@H]12

>  <measured value>
1.07

$$$$
>  <compound>
CC1CC/C=C\[C@H]2OC34C=CCN(Cc5ccccc5)C(=O)[C@H]3N(CCCO)C(=O)[C@@H]4C2C(=O)O1 (some centres undefined)

>  <measured value>
-0.192

$$$$
>  <compound>
C=CCNC(=O)[C@H]1[C@@H]2C(=O)O[C@@H](c3ccccc3)[C@@H](c3ccccc3)N2[C@@H](c2ccccc2OCCO)[C@]12C(=O)Nc1ccc(C#CCCO)cc12

>  <measured value>
0.479

$$$$

Query: Value lookup for composite z-score; key = `CC(C)N1C(=O)c2ccccc2[C@](C)(C(=O)NCCN2CCOCC2)[C@@H]1c1ccc(CO)cc1`
Reply: 0.503

----------
# system tested: Calmodulin-1 (Homo sapiens) (UniProt P0DP23)
# measurement protocol: calcium-bound CALM1 binders on microarrays, profiling panel, artefact control for SMM control-protein annotation, biochemical, small-molecule microarray, Cy5-labelled CALM1, plus calcium (AID 1112);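 note: score merges spot fluorescence with signal to noise from triplicate slides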
# test conditions: Cy5-CALM1 binding fluorescence, higher = more signal
Listing of entries alongside the reported composite z-score.
Quick one: just the number, no unit, thanks!

>  <compound>
CC(C)C(=C=CC[C@@H](O)c1ccc(OCCO)cc1)C[C@@H](O)COCc1ccccc1

>  <system tested>
Calmodulin-1 (Homo sapiens) (UniProt P0DP23)

>  <composite z-score>
-0.918

$$$$
>  <compound>
C=C(CCCC)/C(=C/C[C@@H](OC(C)=O)c1ccc(OCCO)cc1)c1cnc2ccccc2c1

>  <system tested>
Calmodulin-1 (Homo sapiens) (UniProt P0DP23)

>  <composite z-score>
-0.642

$$$$
>  <compound>
COc1ccc(CCNC(=O)[C@@]2(Sc3ccc(C)cc3)CC(=O)N(C(C)C)[C@@H]2c2ccc(CO)cc2I)cc1

>  <system tested>
Calmodulin-1 (Homo sapiens) (UniProt P0DP23)

>  <composite z-score>
0.428

$$$$
>  <compound>
COc1ccc(-c2cc3c(c(-c4ccc(Oc5ccccc5)cc4)n2)[Si](C(C)C)(C(C)C)OC3)cn1

>  <system tested>
Calmodulin-1 (Homo sapiens) (UniProt P0DP23)

>  <composite z-score>
0.211

$$$$
>  <compound>
CCc1cccc(NC(=O)O[C@H]2[C@H](OC(=O)Nc3ccccc3-c3ccccc3)[C@@H](OC(=O)Nc3ccccc3-c3ccccc3)[C@@H](OC)O[C@@H]2CO)c1

>  <system tested>
Calmodulin-1 (Homo sapiens) (UniProt P0DP23)

>  <composite z-score>
-0.0011

$$$$
>  <compound>
CC(C)N1C(=O)c2ccccc2[C@](C)(C(=O)NCCN2CCOCC2)[C@@H]1c1ccc(CO)cc1

>  <system tested>
Calmodulin-1 (Homo sapiens) (UniProt P0DP23)

>  <composite z-score>
0.23

$$$$

Query: What measured composite z-score is associated with `C=CCN1C(=O)[C@]2(O[C@H](CCn3cc([C@H](O)c4ccccc4)nn3)[C@@H]([Si](C)(C)c3ccc(OC)cc3)[C@@H]2C)c2ccccc21` on Calmodulin-1 (Homo sapiens) (UniProt P0DP23)?
Reply: 0.227

Query: Same read-out for `[N-]=[N+]=Nc1ccccc1[C@H]1OC(c2ccc(OCCCO)cc2)=N[C@@]1(CCS(=O)(=O)c1ccccc1)C(N)=O` ?
Reply: 0.389

Query: Same read-out for N#Cc1ccc(NN2C(C(O)C(c3ccccc3)c3ccccc3)C=CC3C(=O)N(c4ccccc4)C(=O)C32)cc1 (stereo unspecified) ?
Reply: 0.609
